Experiment: Multi-component pharmacokinetics of AAs in rats after oral administration of AF and HAF extracts (HPLC-MS/MS of plasma)
Set-up: species or system Sprague–Dawley (SD) rats
Conditions: Sprague-Dawley, rat, in vivo, 15 mg/kg, AF extract, high dose (15.0 mg/kg as AA I), analyte dose mg/kg: AA I 15.0, AA II 1.05, AA C 7.09, AA D 8.00, 7-OH AA I 11.66, n = 6
Each entry below lists one item and its recorded AUC(0-inf) value.
Hi! Could you send only the number? It should be in ng·h/mL, unit omitted.

Recorded results for 3 molecules are shown here.
smiles str	endpoint unit	AUC(0-inf)
O=C(O)c1cc2c(c3c1c([N+](=O)[O-])cc1ccccc13)OCO2	ng·h/mL	12700
COc1c(O)ccc2c1cc([N+](=O)[O-])c1c(C(=O)O)cc3c(c12)OCO3	ng·h/mL	1320
COc1cccc2c1cc([N+](=O)[O-])c1c(C(=O)O)cc3c(c12)OCO3	ng·h/mL	26800

**Q:** Fill blank: measured AUC(0-inf) of the molecule COc1cc(O)cc2c1cc([N+](=O)[O-])c1c(C(=O)O)cc3c(c12)OCO3 is ____.
**A:** 960
